Test: Clearance in C57BL6 mouse at 2 mg/kg, iv qd administered as bolus dose after 24 hrs by LC-MS/MS analysis
Assay type: ADME, organism-based
Conditions: in vivo
assayReadout: clearance (mL/min/kg)
Numbers only, in mL/min/kg.

compound	endpointValue
O=C(O)[C@H]1CC[C@H](C(=O)N2CC[C@@]3(S(=O)(=O)c4ccc(F)cc4)c4ccc(OCc5c(F)cccc5C(F)(F)F)cc4CC[C@@H]23)CC1	9.1

Kindly review the next molecule as well.
So for C[C@]1(C(=O)N2CC[C@@]3(S(=O)(=O)c4ccc(F)cc4)c4ccc(OCc5c(F)cccc5C(F)(F)F)cc4CC[C@@H]23)CC[C@H](C(=O)O)CC1 , the logged clearance turned out to be 6.7
